System: Plasmodium falciparum
Measurement notes: GSK_TCMDC: Inhibition of Plasmodium falciparum 3D7 in whole red blood cells, using parasite LDH activity as an index of growth. Test compounds present at 2uM
Format: functional
Recorded endpoint: Inhibition (%)
Numbers only, in %.

| Molecule | Inhibition, % |
| --- | --- |
| CCNC(=O)c1ccc(-n2nc(C)cc2-c2ccccc2)cc1 | 89 |
| CC(C)C[C@H](Nc1ccc(C#N)c2ccccc12)C(=O)NC(C)(C)C12CC3CC(CC(C3)C1)C2.O=C(O)C(F)(F)F | 96 |
| Cc1cccc(C)c1CNc1ccnc2cc(C#N)ccc12.Cl | 100 |
| CCCCNCc1cc(Cl)c2ccccc2c1O.Cl | 100 |
| O=C(NCC1CCN(Cc2cccc(C(F)(F)F)c2)C1)c1cc(-c2cccc(F)c2)cs1.O=C(O)C(F)(F)F (centres undefined) | 87 |

Please give Inhibition, item by item, for the list that follows.
1. O=C(Nc1cccc(C(F)(F)F)c1)c1ccc(S(=O)(=O)NCC2CCCN(CC3CCCCC3)C2)cc1.O=C(O)C(F)(F)F (centres undefined)
2. COc1ccc(CCN(C)CCCN2CCC(NC(=O)c3cccc4c(=O)c5ccccc5[nH]c34)CC2)cc1OC.O=C(O)C(=O)O

Response given:
1. 95
2. 99

Please give Inhibition, item by item, for the list that follows.
1. OCc1ccc2nc3c(cc2c1)-c1cccc2cccc-3c12
2. CC(=O)N(C)/N=C/[C@H](CCc1ccccc1)NC(=O)[C@H](CC(C)C)NC(=O)c1cccc(OCCN2CCOCC2)c1

Response given:
1: 96; 2: 89

* * *

I'd appreciate it if you could supply Inhibition values for the items below.
System: HepG2
Measurement notes: GSK_TCMDC: Percent inhibition of human HepG2 cell line. Test compounds present at 10uM.
Format: functional
Numbers only, in %.

| Molecule | Inhibition / % |
| --- | --- |
| Cc1ccc(Cn2c(N3CCC(C(=O)NCc4ccccn4)CC3)nc3ccccc32)cc1 | 0 |
| CCn1c(Sc2ccc(C#N)c([N+](=O)[O-])c2)nnc1-c1ccc(Cl)cc1 | 0 |
| Cc1cc2ccccc2c(CON2C(=N)N=C(N)NC2(C)C)c1C.Cl | 65 |
| CN(C(=O)Nc1ccc(C(F)(F)F)cc1)C1CCN(CCCCCNC(=O)/C=C/c2ccc(Cl)c(Cl)c2)CC1 | 57 |
| CN1CC[C@@H](Oc2cc(C(=O)NCc3ccc(Cl)c(Cl)c3)ccc2C(F)(F)F)C1.Cl | 8 |
| CCCCCCNC(=O)C1Cc2c([nH]c3cc(Cl)ccc23)C2(CCN(Cc3ccccc3)CC2)N1 (stereo unspecified) | 21 |
| CNC(=O)c1ccc2nc(-c3ccc(-c4ccccc4)cc3)n(CC3CCN(CC4CCCC4)CC3)c2c1.O=C(O)C(F)(F)F | 13 |
| Clc1ccc(Nc2nc3ccc(Cl)cc3nc2Nc2ccc(Cl)cc2)cc1 | 79 |

Please give Inhibition, item by item, for the list that follows.
1. Br.CC1(C)NC(N)=NC(=N)N1OCCOc1ccc(Cc2ccccc2)cc1
2. NC1=NC(c2ccccc2)(c2ccccc2)C(=O)N1Cc1ccc(-c2ccncc2)cc1.O=CO
3. CCOC(=O)c1cc(C(=O)NCCCCN2CCC(c3ccc(CC)cc3OCC)CC2)ccc1-c1ccc(C(F)(F)F)cc1
4. Fc1ccc2[nH]c(-c3ccc(-c4ccc(CN5CCN(CCN6CCOCC6)CC5)cc4)s3)nc2c1.O=C(O)C(F)(F)F
5. O=S(=O)(Nc1ccc(CCN2CCCCC2CCN2CCCC2)cc1)c1cccc2cccnc12 (stereo unspecified)
6. CCC(=Cc1cccc([N+](=O)[O-])c1)C(=O)NCC1CCN(c2nc3cc(OC)c(OC)cc3c(=N)[nH]2)CC1.Cl
7. Cl.OC(c1cccc(OCc2ccccc2)c1)C1CN(CCc2ccccc2)CCC1(O)c1ccccc1 (stereo unspecified)

Response given:
62
20
74
39
20
25
7

Please give Inhibition, item by item, for the list that follows.
1. Cc1cccc2nc(O)c([N+](=O)[O-])c(O)c12
2. Cl.O=C(NCCCCN1CCC(c2ccc(OC(F)(F)F)cc2)CC1)c1ccc(NC(=O)c2ccc(Cl)cc2)cc1

Response given:
1. 0
2. 24

These data points were gathered from ChEMBL document CHEMBL1157539.
